# credit: patent US20230265198A1

# measurement.target: T1, neuropilin-1 (NRP1) on HEK293 cells overexpressing NRP1 (UniProt O14786 22-923, limits assumed)
# T1 construct: whole, on cells
# assay.remarks: flow cytometry, HEK293-NRP1 vs HEK293
metric.name: 100 nM FACS (MFI Ratio)

NRP1-134 (antibody, IgG2, V domains shown) VH: EVQLLESGGGLVQPGGSLRLSCAASGFTFSNYGVSWVRQAPGKGLEWVSEISPSGKKKYYADSVKGRFTISRDNSKNTLYLQMNSLRAEDTAVYYCAKTTDIQRLNSAFDYWGQGTLVTVSS VL: DIQMTQSPSSLSASVGDRVTITCRASQPIAYFLSWYQQKPGKAPKLLIYDASSLHTGVPSRFSGSGSGTDFTLTISSLQPEDFATYYCSSRDKSGSRLVTFGQGTKVEIK = 1.9
NRP1-25 (VHH) VHH: EVQLVESGGGLVQPGGSLRLSCAASGRTSNIYAMGWFRQAPGKERELVAAIRWSGVETYYADSVKGRFTISADNSKNTAYLQMNSLKPEDTAVYYCAADRMYRPVGNQYDWGQGTLVTVSS = 8.9
NRP1-288 (antibody, IgG2, V domains shown) VH: EVQLLESGGGLVQPGGSLRLSCAASGFTFSTFAMSWVRQAPGKGLEWVSTISGSGTSTYYADSVKGRFTISRDNSKNTLYLQMNSLRAEDTAVYYCARFPGDRGYYHYYMDVWGQGTLVTVSS VL: DIQMTQSPSSLSASVGDRVTITCRASQSIARYLNWYQQKPGKAPKLLIYRASRLQSGVPSRFSGSGSGTDFALTISSLQPEDFATYYCQQSFSPPFTFGGGTKVEIK = 3.9
